Here, compounds appear alongside IC50 reported for the protein given by its sequence in the literature.
Target protein (sequence): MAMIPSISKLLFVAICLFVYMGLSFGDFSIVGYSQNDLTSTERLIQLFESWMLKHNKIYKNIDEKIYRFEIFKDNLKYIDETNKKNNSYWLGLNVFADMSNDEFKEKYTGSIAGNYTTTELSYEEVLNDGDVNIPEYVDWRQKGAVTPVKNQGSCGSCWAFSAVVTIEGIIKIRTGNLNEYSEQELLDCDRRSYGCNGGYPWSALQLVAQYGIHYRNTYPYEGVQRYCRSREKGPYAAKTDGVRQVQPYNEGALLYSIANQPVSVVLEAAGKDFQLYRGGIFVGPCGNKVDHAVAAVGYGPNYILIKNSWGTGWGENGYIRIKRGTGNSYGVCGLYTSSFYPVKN

[
  {
    "SMILES STRUCTURE": "O=C1NC(=O)c2cc(NC(=O)c3ccc([N+](=O)[O-])cc3)ccc2C1=O",
    "RESULT": "> 5 µM"
  },
  {
    "SMILES STRUCTURE": "COc1ccccc1NC(=O)CCC(=O)Nc1ccc2c(c1)C(=O)C(=O)NC2=O",
    "RESULT": "> 5 µM"
  },
  {
    "SMILES STRUCTURE": "Cc1ccc(S(=O)(=O)N(C)CC(=O)N(Cc2ccc(-c3ccc(-c4cccc(C(N)=O)c4)cc3)cc2)c2ccc(C(=O)O)c(O)c2)cc1",
    "RESULT": "> 10 µM"
  },
  {
    "SMILES STRUCTURE": "O=C(O)CCC(=O)Nc1ccc2c(c1)C(=O)C(=O)NC2=O",
    "RESULT": "> 5 µM"
  },
  {
    "SMILES STRUCTURE": "O=C(Nc1ccc(Cl)cc1)Nc1csc(-c2ccc(C(F)(F)F)cc2)n1",
    "RESULT": "> 50 µM"
  }
]

In: Requested read-out: IC50. Entry: `O=C(CCCl)Nc1ccc2c(c1)C(=O)C(=O)NC2=O`
Out: > 5 µM

In: Try this compound next: `CC(C)C[C@H](NC(=O)N1CCOCC1)C(=O)NNC(=O)/C=C/S(=O)(=O)c1ccccc1`
Out: > 50 µM
